Values were extracted from ChEMBL document CHEMBL4311993.

# TEST_SYSTEM: Ectonucleotide pyrophosphatase/phosphodiesterase family member 1 (Homo sapiens)
# Sequence (P22413 whole entry): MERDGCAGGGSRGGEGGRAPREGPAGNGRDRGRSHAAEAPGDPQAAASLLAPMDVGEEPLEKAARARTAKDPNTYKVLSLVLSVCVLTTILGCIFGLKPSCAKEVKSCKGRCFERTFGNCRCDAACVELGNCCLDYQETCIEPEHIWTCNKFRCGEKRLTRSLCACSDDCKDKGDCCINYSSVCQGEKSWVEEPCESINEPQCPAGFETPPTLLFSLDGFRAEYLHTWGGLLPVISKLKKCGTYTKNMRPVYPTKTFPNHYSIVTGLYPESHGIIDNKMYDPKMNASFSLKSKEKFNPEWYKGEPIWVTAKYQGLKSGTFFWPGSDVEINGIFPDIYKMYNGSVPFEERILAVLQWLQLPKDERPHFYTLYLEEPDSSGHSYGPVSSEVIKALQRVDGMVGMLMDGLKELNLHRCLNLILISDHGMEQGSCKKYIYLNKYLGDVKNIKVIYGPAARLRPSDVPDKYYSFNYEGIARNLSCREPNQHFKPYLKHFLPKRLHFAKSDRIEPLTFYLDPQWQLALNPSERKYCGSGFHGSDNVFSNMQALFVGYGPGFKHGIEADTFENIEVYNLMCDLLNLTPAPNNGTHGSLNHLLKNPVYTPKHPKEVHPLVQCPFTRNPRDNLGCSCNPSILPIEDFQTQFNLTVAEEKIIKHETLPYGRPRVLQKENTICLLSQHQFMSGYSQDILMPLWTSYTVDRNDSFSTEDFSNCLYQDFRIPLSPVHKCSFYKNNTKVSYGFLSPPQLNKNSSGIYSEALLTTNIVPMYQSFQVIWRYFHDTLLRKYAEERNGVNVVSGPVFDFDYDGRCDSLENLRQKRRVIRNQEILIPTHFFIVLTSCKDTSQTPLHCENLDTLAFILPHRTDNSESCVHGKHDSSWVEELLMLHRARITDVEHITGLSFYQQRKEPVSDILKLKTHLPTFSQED
# TEST_PROTOCOL: Inhibition of full-length human NPP-1 expressed in baculovirus infected Sf9 cells using p-Nph5-TMP as substrate after 60 mins by colorimetric assay
MEASURED_PROPERTY: Ki

# STRUCTURE_NOTATION, OBSERVED_RESULT
data = [
    ("Nc1ncnc2c1ncn2COCCOP(=O)(O)CP(=O)(O)O", "16.3 µM"),
]

---

# TEST_SYSTEM: UniProt P49961
# Sequence (P49961 whole entry): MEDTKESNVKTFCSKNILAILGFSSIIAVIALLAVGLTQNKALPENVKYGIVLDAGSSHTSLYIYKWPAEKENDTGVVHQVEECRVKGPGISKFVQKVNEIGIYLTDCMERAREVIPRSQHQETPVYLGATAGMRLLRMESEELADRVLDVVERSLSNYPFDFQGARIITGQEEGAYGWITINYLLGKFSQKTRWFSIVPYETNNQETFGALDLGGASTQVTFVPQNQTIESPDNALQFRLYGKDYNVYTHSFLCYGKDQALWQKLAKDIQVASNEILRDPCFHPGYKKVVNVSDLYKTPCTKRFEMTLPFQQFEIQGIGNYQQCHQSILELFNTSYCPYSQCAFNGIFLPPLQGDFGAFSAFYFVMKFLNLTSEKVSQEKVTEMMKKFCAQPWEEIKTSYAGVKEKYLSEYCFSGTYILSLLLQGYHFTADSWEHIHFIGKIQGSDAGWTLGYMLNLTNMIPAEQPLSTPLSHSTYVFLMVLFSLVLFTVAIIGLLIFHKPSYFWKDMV
# TEST_PROTOCOL: Inhibition of human NTPdase-1 expressed in COS7 cell membranes at 100 uM using ATP as substrate preincubated for 3 mins followed by susbtrate addition and measured after 10 mins by malachite green dye based method
Active and inactive are the calls of the source. No cut-off for these calls is given here.
Outcome codes: active, inactive

# COMPOUND, CLASS_LABEL
records = [
    ("O=c1ccn(COCCOP(=O)(O)CP(=O)(O)O)c(=O)[nH]1", "active"),
    ("O=c1ccn(COCCO[PH](=O)O)c(=O)[nH]1", "inactive"),
    ("O=c1ccn(COCCOP(=S)(S)OP(=O)(O)CP(=O)(O)O)c(=O)[nH]1 (stereo unspecified)", "active"),
    ("O=c1ccn(COCCOP(=O)(O)O)c(=O)[nH]1", "inactive"),
    ("O=c1ccn(COCCOP(=S)(S)OP(=O)(O)C(Cl)(Cl)P(=O)(O)O)c(=O)[nH]1 (stereo unspecified)", "active"),
    ("O=c1ccn(COCCOP(=O)(O)C(Cl)(Cl)P(=O)(O)O)c(=O)[nH]1", "active"),
]
